B1: TPR 5TU (parent)
chain: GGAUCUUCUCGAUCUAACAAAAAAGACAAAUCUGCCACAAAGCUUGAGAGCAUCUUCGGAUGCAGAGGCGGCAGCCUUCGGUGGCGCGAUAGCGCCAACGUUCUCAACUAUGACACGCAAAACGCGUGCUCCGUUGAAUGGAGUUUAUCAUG

Variants of: B1
procedure.text: polymerase ribozyme fitness, log enrichment relative to wild type (log ratio); higher = more active; in vitro selection for triplet polymerase activity
This sample holds only a part of the variants without activity.
assay.endpoint: polymerase ribozyme fitness (log ratio)

// solved cases for polymerase ribozyme fitness (log ratio) follow
variant.identifier	polymerase ribozyme fitness (log ratio)
A39C U55G G81C A121U	-2.31
C57U C85U G143A	-0.317
G86C G124A U144A	-2.44
G50U U55A C96U	-0.864
A41U G84A C96U A107C A147C	≤ -4.2

Respectfully, I request polymerase ribozyme fitness (log ratio) for each entry included below.
1. G59U A73G
2. C96A U148A
3. A16G C27U
4. G25A C27G U44A G86C A97U A110C
5. U56G C87A C103U C114U C125U
6. U151G
7. A37C C96G A106G

(A)
1. -0.629
2. -3.15
3. -2
4. ≤ -4.2
5. ≤ -4.2
6. -3.49
7. -0.258

Respectfully, I request polymerase ribozyme fitness (log ratio) for each entry included below.
1. G50C U78A G92A
2. U31C U55A U101C
3. A28U A41U C57A G70C G88U A89U C95A

(A)
≤ -4.2
0.401
≤ -4.2

Respectfully, I request polymerase ribozyme fitness (log ratio) for each entry included below.
1. A21U A24C U56A C96U A138U
2. C14A C54U
3. U15G A17G C38A G62C G81A C85G
4. C69A A119U
5. A30C G68A C87U A106U A120G
6. C54U G88C
7. U44A C75U C76G U77G G92U A115U G140A G152C

(A)
["≤ -4.2", -2.07, "≤ -4.2", -2.7, "≤ -4.2", "≤ -4.2", "≤ -4.2"]

Respectfully, I request polymerase ribozyme fitness (log ratio) for each entry included below.
1. U104G A119C C123U
2. A24U U31C G59C A66G A91U C114U
3. C8U A28G G34A C36U G86U A91G A110U
4. U9C A12U C27G G48A G74A G88A
5. A41C U53C G81C C114A A115U C123G

(A)
1: 0.501; 2: ≤ -4.2; 3: -4.19; 4: ≤ -4.2; 5: ≤ -4.2

Respectfully, I request polymerase ribozyme fitness (log ratio) for each entry included below.
1. U9C U56A C76A C108G G143U A150G
2. A16G A37C G46A G50C C87A G92A A138C A147U

(A)
≤ -4.2
≤ -4.2

Respectfully, I request polymerase ribozyme fitness (log ratio) for each entry included below.
1. A97G A150G
2. C69U C116G
3. A49U G83A U145A
4. U55A G124A
5. A12G C14U G50A U53A C95U C99A C116U A150U
6. C27U A41G A47C U53A U78C C93A A110U
7. A29U C96U A106C U127G

(A)
-2.82
0.325
-1.1
-0.272
-4.15
≤ -4.2
≤ -4.2

Respectfully, I request polymerase ribozyme fitness (log ratio) for each entry included below.
1. U78G A89U A106G C118U
2. C75U G83A C105G G128U U134A A138U G141U
3. A17G G86U A97U
4. C85U C87U U144G
5. A24C U31A A52G
6. U82G C95A

(A)
1: ≤ -4.2; 2: ≤ -4.2; 3: -2.08; 4: 0.338; 5: -3.62; 6: -1.03

Respectfully, I request polymerase ribozyme fitness (log ratio) for each entry included below.
1. A21U C38A G81A
2. A28C A64U G84A C85G
3. A20U C54G C87U A115G C149U
4. G50C C87U

(A)
[0.0427, "≤ -4.2", "≤ -4.2", -3.6]

The values you see were collected from the RNAGym collection of RNA variant scans (doi:10.1073/pnas.2313332121).
